From: ChEMBL document CHEMBL3616389

biological target: D-amino-acid oxidase (Homo sapiens); assay: Inhibition of human recombinant DAO expressed in Escherichia coli BL21(DE3) using D-Asp and D-Ala assessed as 2-oxo acid production after 10 mins by colorimetric assay
Sequence (P14920 whole entry): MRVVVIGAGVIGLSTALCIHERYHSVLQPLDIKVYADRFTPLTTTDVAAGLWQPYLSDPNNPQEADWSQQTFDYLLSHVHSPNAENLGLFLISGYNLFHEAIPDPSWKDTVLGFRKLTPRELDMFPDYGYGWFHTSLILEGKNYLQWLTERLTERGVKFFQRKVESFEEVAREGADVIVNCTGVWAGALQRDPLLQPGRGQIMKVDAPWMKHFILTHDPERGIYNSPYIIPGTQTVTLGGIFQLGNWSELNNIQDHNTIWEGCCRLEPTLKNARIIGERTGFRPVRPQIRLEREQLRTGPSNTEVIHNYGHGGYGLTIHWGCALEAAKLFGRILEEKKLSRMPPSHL
pIC50: −log10 of the molar value.
The following compounds are shown together with reported pIC50 values.

The following compounds have reported results that may help.
{"structure.string": "O=C(O)c1cn2cnnc2nc1O", "recorded.measurement": "< 3.30"}
{"structure.string": "CNc1cncc(C(=O)O)c1", "recorded.measurement": "< 2.00"}
{"structure.string": "Nc1cccnc1", "recorded.measurement": "< 2.00"}

Reported pIC50 (D-amino-acid oxidase (Homo sapiens)) for entry `Nc1cnccc1C(=O)O` is < 2.30
